test system: C. parapsilosis 2 strains; construct: 2 clinical isolates; assay: microbe, parasite or virus in culture; parameters: species or system clinical Candida isolates; CLSI broth microdilution MIC, Sabouraud dextrose broth, 35 °C, visual complete growth inhibition; conditions: Lodderomyces parapsilosis, 24 h, read-out: Tested Fungi (MIC Values μg/mL) / C. parapsilosis 2 strains
experimental-readout: MIC (µg/mL)
One number for each entry, in µg/mL.

> print(dat)
                                   compound         measurement.target  unit.label  numeric.readout
1  Cc1ccc(N2C(=O)CS/C2=N\NC(=O)C(O)c2ccccc2)cc1 (centres unmarked) [3l]  C. parapsilosis 2 strains       µg/mL               32
2  Cc1cccc(N2C(=O)CS/C2=N\NC(=O)C(O)c2ccccc2)c1 (centres unmarked) [3k]  C. parapsilosis 2 strains       µg/mL               16
3  O=C(N/N=C1\SCC(=O)N1c1ccccc1Br)C(O)c1ccccc1 (centres unmarked) [3g]  C. parapsilosis 2 strains       µg/mL                8
4  O=C(N/N=C1\SCC(=O)N1c1ccccc1Cl)C(O)c1ccccc1 (centres unmarked) [3d]  C. parapsilosis 2 strains       µg/mL               32
5  CC1S/C(=N\NC(=O)C(O)c2ccccc2)N(c2ccc([N+](=O)[O-])cc2)C1=O (centres unmarked) [4j]  C. parapsilosis 2 strains       µg/mL               32

For every item in the list below, what is its measured MIC?
1. CC1S/C(=N\NC(=O)C(O)c2ccccc2)N(c2ccc(Br)cc2)C1=O (centres unmarked) [4f]
2. O=C(N/N=C1\SCC(=O)N1c1cccc(Cl)c1)C(O)c1ccccc1 (centres unmarked) [3e]
3. Clc1ccccc1C(c1ccccc1)(c1ccccc1)n1ccnc1 [Clotrimazole]

Found:
1. 32
2. 32
3. 2

====

Assignment: determine reported MIC for the given molecules.
test system: C. albicans 5 strains; construct: 5 clinical isolates; assay: microbe, parasite or virus in culture; set-up: species or system clinical Candida isolates; broth microdilution antifungal MIC, visual growth inhibition, CLSI; conditions: Candida albicans, 24 h, read-out: Tested Fungi (MIC Values μg/mL) / C. albicans 5 strains

> print(dat)
                                   molecule          result
1  CC1S/C(=N\NC(=O)C(O)c2ccccc2)N(c2ccc([N+](=O)[O-])cc2)C1=O (stereo not drawn)   8 to 32 µg/mL
2  CC1S/C(=N\NC(=O)C(O)c2ccccc2)N(c2ccc(F)cc2)C1=O (stereo not drawn)  16 to 32 µg/mL
3  O=C(N/N=C1\SCC(=O)N1c1cccc(Br)c1)C(O)c1ccccc1 (stereo not drawn)   8 to 16 µg/mL

For every item in the list below, what is its measured MIC?
1. COc1ccc(N2C(=O)C(C)S/C2=N\NC(=O)C(O)c2ccccc2)cc1 (stereo not drawn)
2. COc1ccc(N2C(=O)CS/C2=N\NC(=O)C(O)c2ccccc2)cc1 (stereo not drawn)
3. O=C(N/N=C1\SCC(=O)N1c1cccc(Cl)c1)C(O)c1ccccc1 (stereo not drawn)

Found:
8 to 32 µg/mL
8 to 32 µg/mL
8 to 32 µg/mL

====

Assignment: determine reported MIC for the given molecules.
test system: C. albicans 5 strains; construct: 5 clinical isolates; experiment: microbe, parasite or virus in culture; set-up: species or system clinical Candida isolates; broth microdilution antifungal MIC, visual growth inhibition, CLSI; conditions: Candida albicans, 24 h, read-out: Tested Fungi (MIC Values μg/mL) / C. albicans 5 strains

Would you please look over these solved cases?
> print(dat)
                                   molecule          result
1  Cc1ccc(N2C(=O)C(C)S/C2=N\NC(=O)C(O)c2ccccc2)cc1 (centres unmarked)   8 to 32 µg/mL
2  Cc1ccc(N2C(=O)CS/C2=N\NC(=O)C(O)c2ccccc2)cc1 (centres unmarked)   8 to 32 µg/mL
3  O=C(N/N=C1\SCC(=O)N1c1ccc(Br)cc1)C(O)c1ccccc1 (centres unmarked)   8 to 16 µg/mL
4  CC1S/C(=N\NC(=O)C(O)c2ccccc2)N(c2cccc(F)c2)C1=O (centres unmarked)  16 to 32 µg/mL
5  O=C(N/N=C1\SCC(=O)N1c1ccc(Cl)cc1)C(O)c1ccccc1 (centres unmarked)    4 to 8 µg/mL
6  O=C(N/N=C1\SCC(=O)N1c1ccc([N+](=O)[O-])cc1)C(O)c1ccccc1 (centres unmarked)   8 to 32 µg/mL

For every item in the list below, what is its measured MIC?
1. CC1S/C(=N\NC(=O)C(O)c2ccccc2)N(c2ccc(Br)cc2)C1=O (centres unmarked)
2. CC1S/C(=N\NC(=O)C(O)c2ccccc2)N(c2cccc(Cl)c2)C1=O (centres unmarked)
3. Cc1ccccc1N1C(=O)CS/C1=N\NC(=O)C(O)c1ccccc1 (centres unmarked)
4. O=C(N/N=C1\SCC(=O)N1c1cccc(F)c1)C(O)c1ccccc1 (centres unmarked)

Found:
4 to 16 µg/mL
16 to 32 µg/mL
8 to 16 µg/mL
4 to 8 µg/mL

For every item in the list below, what is its measured MIC?
1. O=C(N/N=C1\SCC(=O)N1c1ccccc1F)C(O)c1ccccc1 (centres unmarked)
2. O=C(N/N=C1\SCC(=O)N1c1ccc(F)cc1)C(O)c1ccccc1 (centres unmarked)
3. Cc1cccc(N2C(=O)CS/C2=N\NC(=O)C(O)c2ccccc2)c1 (centres unmarked)
4. Cc1cccc(N2C(=O)C(C)S/C2=N\NC(=O)C(O)c2ccccc2)c1 (centres unmarked)

Found:
["4 to 8 µg/mL", "4 to 8 µg/mL", "8 to 32 µg/mL", "4 to 16 µg/mL"]

For every item in the list below, what is its measured MIC?
1. O=C(N/N=C1\SCC(=O)N1c1ccccc1Cl)C(O)c1ccccc1 (centres unmarked)
2. O=C(N/N=C1\SCC(=O)N1c1cccc(C(F)(F)F)c1)C(O)c1ccccc1 (centres unmarked)
3. CC1S/C(=N\NC(=O)C(O)c2ccccc2)N(c2cccc(Br)c2)C1=O (centres unmarked)
4. CC1S/C(=N\NC(=O)C(O)c2ccccc2)N(c2ccc(Cl)cc2)C1=O (centres unmarked)

Found:
1: 8 to 32 µg/mL; 2: 16 to 32 µg/mL; 3: 4 to 16 µg/mL; 4: 4 to 16 µg/mL

For every item in the list below, what is its measured MIC?
1. O=C(N/N=C1\SCC(=O)N1c1ccccc1Br)C(O)c1ccccc1 (centres unmarked)
2. CC1S/C(=N\NC(=O)C(O)c2ccccc2)N(c2cccc(C(F)(F)F)c2)C1=O (centres unmarked)

Found:
["8 to 16 µg/mL", "32 to 128 µg/mL"]
